System: LN-229
Assay: Cytotoxicity against human LN229 cells assessed as cell viability at 100 uM incubated for 24 hrs by WST-1 assay (reference value: 91 %)
Format: functional
Settings: LN-229, 24 h, read-out: Activity
Entries and their measured viability at 100 µM follow.

| MOLECULE | viability at 100 µM, % |
| --- | --- |
| COC(=O)C(Cc1cn(C(=O)OC(C)(C)C)c2ccc(B3OC(C)(C)C(C)(C)O3)cc12)N(C(=O)OC(C)(C)C)C(=O)OC(C)(C)C (centres undefined) | 60.7 |
| N[C@@H](Cc1ccc(B(O)O)cc1)C(=O)O | 79.6 |
| COC(=O)C(Cc1c[nH]c2ccc(B3OC(C)(C)C(C)(C)O3)cc12)NC(C)=O (centres undefined) | 69.9 |
| COC(=O)C(Cc1c(B2OC(C)(C)C(C)(C)O2)[nH]c2c(B3OC(C)(C)C(C)(C)O3)cccc12)N=[N+]=[N-] (centres undefined) | 57.2 |

---

System: LN-229
Assay: Cytotoxicity against human LN229 cells assessed as cell viability at 100 uM incubated for 24 hrs by WST-1 assay (reference value: 91 %)
Assay type: functional
Conditions: LN-229, 24 h, read-out: Activity

| COMPOUND | viability at 100 µM / % |
| --- | --- |
| COC(=O)C(Cc1cn(C(=O)OC(C)(C)C)c2cc(B3OC(C)(C)C(C)(C)O3)ccc12)N(C(=O)OC(C)(C)C)C(=O)OC(C)(C)C (stereo not drawn) | 53.2 |
| COC(=O)C(N)Cc1c[nH]c2ccc(B3OC(C)(C)C(C)(C)O3)cc12 (stereo not drawn) | 67.3 |
| COC(=O)C(Cc1cn(C(=O)OC(C)(C)C)c2ccc(B3OC(C)(C)C(C)(C)O3)cc12)N(C(C)=O)C(=O)OC(C)(C)C (stereo not drawn) | 70.8 |

---

Test: Drug uptake in human LN229 cells at 50 uM measured upto 4 hrs by ICP-MS analysis
Type: ADME, cell-based
Details: ln-229, 4 h

| MOLECULE | Drug uptake |
| --- | --- |
| COC(=O)C(Cc1cn(C(=O)OC(C)(C)C)c2cc(B3OC(C)(C)C(C)(C)O3)ccc12)N(C(=O)OC(C)(C)C)C(=O)OC(C)(C)C (stereo not given) | 300 ppm |
| COC(=O)C(N)Cc1c[nH]c2ccc(B3OC(C)(C)C(C)(C)O3)cc12 (stereo not given) | Not Active |
| COC(=O)C(Cc1cn(C(=O)OC(C)(C)C)c2ccc(B3OC(C)(C)C(C)(C)O3)cc12)N(C(C)=O)C(=O)OC(C)(C)C (stereo not given) | Active |
| COC(=O)C(Cc1cn(C(=O)OC(C)(C)C)c2ccc(B3OC(C)(C)C(C)(C)O3)cc12)N(C(=O)OC(C)(C)C)C(=O)OC(C)(C)C (stereo not given) | Active |
| COC(=O)C(Cc1c[nH]c2ccc(B3OC(C)(C)C(C)(C)O3)cc12)NC(C)=O (stereo not given) | Not Active |
